The measured values listed here are drawn from ChEMBL document CHEMBL1149266.

- tested target: B1 bradykinin receptor (Rattus norvegicus)
- Sequence (P97583 whole entry): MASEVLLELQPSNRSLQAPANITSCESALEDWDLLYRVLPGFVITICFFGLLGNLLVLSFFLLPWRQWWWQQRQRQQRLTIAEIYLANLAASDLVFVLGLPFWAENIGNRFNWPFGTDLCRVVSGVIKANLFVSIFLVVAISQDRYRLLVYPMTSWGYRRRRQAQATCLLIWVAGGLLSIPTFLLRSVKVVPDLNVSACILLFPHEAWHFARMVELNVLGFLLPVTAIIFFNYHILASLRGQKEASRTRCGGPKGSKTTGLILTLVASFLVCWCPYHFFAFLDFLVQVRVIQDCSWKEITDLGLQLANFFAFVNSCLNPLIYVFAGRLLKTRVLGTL
- protocol summary: Displacement of [3H]des-arg10 kallidin from rat bradykinin B1 receptor expressed in CHO cells
- Format: cell-based
Listed next: entries and their corresponding Ki.

Before answering, review these 4 worked examples.
# compound structure, Ki
data = [
    ("C[C@@H](Nc1nccc(Cl)c1NC(=O)CC#N)c1ccc(-c2cccc(F)c2-c2nnn(C)n2)cc1", "119 nM (antagonist)"),
    ("COC(=O)c1c(F)cccc1-c1ccc([C@@H](C)Nc2nccc(Cl)c2NC(=O)CC#N)cc1", "35.3 nM (antagonist)"),
    ("Cc1noc(-c2c(F)cccc2-c2ccc([C@@H](C)Nc3nccc(Cl)c3NC(=O)CC#N)cc2)n1", "81 nM (antagonist)"),
    ("COC(=O)c1c(Cl)cccc1-c1ccc([C@@H](C)Nc2nccc(Cl)c2NC(=O)CC#N)cc1", "35.7 nM (antagonist)"),
]

Entry C[C@@H](Nc1nccc(Cl)c1NC(=O)CC#N)c1ccc(-c2cccc(F)c2-c2nnnn2C)cc1 needs its Ki filled in; supply it.
12 nM (antagonist)

====

- tested target: B1 bradykinin receptor (Homo sapiens)
- Sequence (P46663 whole entry): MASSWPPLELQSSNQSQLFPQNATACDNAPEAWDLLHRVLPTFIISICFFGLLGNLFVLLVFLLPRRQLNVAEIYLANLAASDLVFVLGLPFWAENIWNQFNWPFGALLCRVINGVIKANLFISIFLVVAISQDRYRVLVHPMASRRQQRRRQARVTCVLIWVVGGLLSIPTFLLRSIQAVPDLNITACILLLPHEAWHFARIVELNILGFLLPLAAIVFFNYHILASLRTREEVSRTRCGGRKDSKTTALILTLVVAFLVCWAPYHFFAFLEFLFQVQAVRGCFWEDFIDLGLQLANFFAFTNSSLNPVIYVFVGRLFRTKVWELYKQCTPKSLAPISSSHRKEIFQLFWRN
- protocol summary: Displacement of [3H]des-arg10, leu9-kallidin from human bradykinin B1 receptor expressed in CHO cells
- Format: cell-based
assay metric: Ki

Before answering, review these 3 worked examples.
# compound structure, Ki
data = [
    ("C[C@@H](Nc1nccc(Cl)c1NC(=O)CC#N)c1ccc(-c2cccc(F)c2-c2nnnn2C)cc1", "6 nM (antagonist)"),
    ("C[C@@H](Nc1nccc(Cl)c1NC(=O)CC#N)c1ccc(-c2cccc(F)c2-c2nnn(C)n2)cc1", "0.5 nM (antagonist)"),
    ("C[C@@H](Nc1nccc(Cl)c1NC(=O)CC#N)c1ccc(-c2cccc(F)c2C(F)(F)F)cc1", "1.1 nM (antagonist)"),
]

Send back B1 bradykinin receptor (Homo sapiens) Ki of COC(=O)c1c(F)cccc1-c1ccc([C@@H](C)Nc2nccc(Cl)c2NC(=O)CC#N)cc1 only.
0.4 nM (antagonist)

Send back B1 bradykinin receptor (Homo sapiens) Ki of CCCCC(=O)Nc1cccnc1NCc1ccc(-c2ccccc2C(=O)OC)cc1 only.
200 nM (antagonist)

Send back B1 bradykinin receptor (Homo sapiens) Ki of Cc1nc(-c2c(F)cccc2-c2ccc([C@@H](C)Nc3nccc(Cl)c3NC(=O)CC#N)cc2)no1 only.
0.7 nM (antagonist)

Send back B1 bradykinin receptor (Homo sapiens) Ki of C[C@@H](Nc1nccc(Cl)c1NC(=O)CC#N)c1ccc(-c2cccc(F)c2C#N)cc1 only.
2 nM (antagonist)

Send back B1 bradykinin receptor (Homo sapiens) Ki of Cc1noc(-c2c(F)cccc2-c2ccc([C@@H](C)Nc3nccc(Cl)c3NC(=O)CC#N)cc2)n1 only.
0.5 nM (antagonist)

Send back B1 bradykinin receptor (Homo sapiens) Ki of COC(=O)c1ccc(C)cc1-c1ccc([C@@H](C)Nc2nccc(C)c2NC(=O)CC#N)cc1 only.
1.2 nM (antagonist)

Send back B1 bradykinin receptor (Homo sapiens) Ki of COC(=O)c1ccc(Cl)cc1-c1ccc([C@@H](C)Nc2nccc(Cl)c2NC(=O)CC#N)cc1 only.
0.8 nM (antagonist)

Send back B1 bradykinin receptor (Homo sapiens) Ki of COC(=O)c1c(Cl)cccc1-c1ccc([C@@H](C)Nc2nccc(Cl)c2NC(=O)CC#N)cc1 only.
0.7 nM (antagonist)
